The origin of these recorded values is patent US20260124309A1.

// values below are reported Dmax
biological target: STAT6 (Homo sapiens, UniProt P42226); construct: endogenous in cells; host or cells: A549; assay: STAT6 MSD degradation in A549 cells; format: cell-based; settings: 24 h
Sequence (P42226 whole entry): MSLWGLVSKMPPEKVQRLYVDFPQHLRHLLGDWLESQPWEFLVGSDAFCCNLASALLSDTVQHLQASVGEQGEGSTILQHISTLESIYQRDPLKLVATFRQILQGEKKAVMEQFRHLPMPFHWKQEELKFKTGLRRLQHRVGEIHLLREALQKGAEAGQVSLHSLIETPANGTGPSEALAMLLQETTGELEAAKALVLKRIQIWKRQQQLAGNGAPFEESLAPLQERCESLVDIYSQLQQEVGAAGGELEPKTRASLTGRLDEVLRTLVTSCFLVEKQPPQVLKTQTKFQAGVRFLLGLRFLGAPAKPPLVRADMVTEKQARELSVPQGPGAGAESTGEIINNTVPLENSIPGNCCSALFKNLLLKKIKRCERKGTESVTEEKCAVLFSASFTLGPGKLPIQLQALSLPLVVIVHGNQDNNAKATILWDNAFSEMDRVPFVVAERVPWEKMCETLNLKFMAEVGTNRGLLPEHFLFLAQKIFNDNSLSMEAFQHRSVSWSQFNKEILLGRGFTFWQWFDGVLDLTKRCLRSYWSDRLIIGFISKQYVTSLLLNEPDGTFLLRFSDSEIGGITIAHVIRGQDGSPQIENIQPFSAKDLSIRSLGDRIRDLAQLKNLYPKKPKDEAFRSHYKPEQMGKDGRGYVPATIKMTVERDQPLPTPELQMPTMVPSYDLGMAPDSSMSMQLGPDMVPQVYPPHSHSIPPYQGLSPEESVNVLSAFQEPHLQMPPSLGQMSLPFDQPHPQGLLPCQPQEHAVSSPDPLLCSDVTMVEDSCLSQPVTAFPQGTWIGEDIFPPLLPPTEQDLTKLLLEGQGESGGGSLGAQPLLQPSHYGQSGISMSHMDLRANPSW
readout name: Dmax

- compound: "Cc1cc(C2CCN(c3cccc4c3n(C)c(=O)n4C3CCC(=O)NC3=O)CC2)ccc1-c1cc(C2=CCCN(C(=O)C(C)C)C2)c(F)c2[nH]c(C(=O)N(C)C)cc12 (stereo not drawn) [Example I-566]"
  result: "> 90%"
- compound: "CN(C)C(=O)c1cc2c(-c3ccc(C4CCN(c5ccc([C@H]6CCC(=O)NC6=O)cc5F)CC4)cc3)cc(C3=CCCN(C(=O)CCn4cccn4)C3)c(F)c2[nH]1 (single isomer, unassigned) [Example I-743]"
  result: "> 90%"
- compound: "CN(C)C(=O)c1cc2c(-c3ccc(C4CCN(c5ccc(N[C@@H]6CCC(=O)NC6=O)cc5F)CC4)cc3)cc(C3=CCCN(C(=O)CCn4cccn4)C3)c(F)c2[nH]1 (single isomer, unassigned) [Example I-797]"
  result: "70 to 90%"
